- Test Details: Cytotoxicity against mouse J774A1 cells after 72 hrs by MTT assay
- Assay type: cell-based, J774.A1
List of CC50 at 72 h values.
Number only, in µg/mL; omit the unit.

Worked cases, answers included:
CCOC(=O)C1=C(C)N(c2ccccc2OC)C(C)=C(C(=O)OCC)C1[C@@H]1O[C@H]2OC(C)(C)O[C@H]2[C@@H]1OC : 49.7
COC(=O)C1=C(C)N(c2ccc(C)cc2)C(C)=C(C(=O)OC)C1[C@@H]1O[C@H]2OC(C)(C)O[C@H]2[C@@H]1OC : 33.1
COC(=O)C1=C(C)N(c2ccc(Cl)c(Cl)c2)C(C)=C(C(=O)OC)C1[C@@H]1O[C@H]2OC(C)(C)O[C@H]2[C@@H]1O : 29.9
COC(=O)C1=C(C)N(c2ccc(Br)cc2)C(C)=C(C(=O)OC)C1[C@@H]1O[C@H]2OC(C)(C)O[C@H]2[C@@H]1OC : 48.5
CCCCCCCCCCCCCCCCOP(=O)([O-])OCC[N+](C)(C)C : 31.3

The record that follows has no CC50 at 72 h shown yet.
Entry `COC(=O)C1=C(C)N(c2ccc(Cl)cc2)C(C)=C(C(=O)OC)C1[C@@H]1O[C@H]2OC(C)(C)O[C@H]2[C@@H]2OC(C)(C)O[C@@H]21` has what CC50 at 72 h? 15.2
